Reported protein stability index by item:
B1: CDKN1A (parent)
chain: GRKRRQTSMTDFYHSKRRLIFSKR

Variants of: B1
procedure summary: protein stability index of a GFP-peptide fusion (GPS, HEK-293T) (PSI 1-6); higher = more stable;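 note: lentivirally expressed fusions sorted by FACS into six bins by GFP to DsRed ratio, PSI derived from sequencing read proportions per bin multiplied by bin number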
experimental parameters: c terminus: a fixed tail appended
value kind: protein stability index

- variant spec: "F21L"
  value kind: "protein stability index"
  result: 3.08
- variant spec: "G1E"
  value kind: "protein stability index"
  result: 3.02
- variant spec: "R17G"
  value kind: "protein stability index"
  result: 2.04
- variant spec: "R5S"
  value kind: "protein stability index"
  result: 2.44
- variant spec: "S22M"
  value kind: "protein stability index"
  result: 4.04
- variant spec: "K23W"
  value kind: "protein stability index"
  result: 2.87
- variant spec: "F21Y"
  value kind: "protein stability index"
  result: 3.38
- variant spec: "M9N"
  value kind: "protein stability index"
  result: 3.29
- variant spec: "K3I"
  value kind: "protein stability index"
  result: 2.76
- variant spec: "I20T"
  value kind: "protein stability index"
  result: 2.86
- variant spec: "F12A"
  value kind: "protein stability index"
  result: 3.27
- variant spec: "R17P"
  value kind: "protein stability index"
  result: 2.62
- variant spec: "R24L"
  value kind: "protein stability index"
  result: 3.19
- variant spec: "S22R"
  value kind: "protein stability index"
  result: 2.79
- variant spec: "K16Q"
  value kind: "protein stability index"
  result: 2.83
- variant spec: "R18Q"
  value kind: "protein stability index"
  result: 1.47
- variant spec: "L19R"
  value kind: "protein stability index"
  result: 2.77
- variant spec: "T7C"
  value kind: "protein stability index"
  result: 2.87
- variant spec: "S15R"
  value kind: "protein stability index"
  result: 3.43
- variant spec: "F12C"
  value kind: "protein stability index"
  result: 2.3
- variant spec: "S8K"
  value kind: "protein stability index"
  result: 3.4
- variant spec: "R4D"
  value kind: "protein stability index"
  result: 3.24
- variant spec: "S22C"
  value kind: "protein stability index"
  result: 2.35
- variant spec: "S8H"
  value kind: "protein stability index"
  result: 4.01
- variant spec: "T7N"
  value kind: "protein stability index"
  result: 2.48
- variant spec: "F21N"
  value kind: "protein stability index"
  result: 3.63
- variant spec: "R17K"
  value kind: "protein stability index"
  result: 3.87
- variant spec: "R5T"
  value kind: "protein stability index"
  result: 3.64
- variant spec: "S15P"
  value kind: "protein stability index"
  result: 2.59
- variant spec: "F12Y"
  value kind: "protein stability index"
  result: 2.17
- variant spec: "R18L"
  value kind: "protein stability index"
  result: 3.13
- variant spec: "S22A"
  value kind: "protein stability index"
  result: 3.99
- variant spec: "I20K"
  value kind: "protein stability index"
  result: 2.99
- variant spec: "K23Q"
  value kind: "protein stability index"
  result: 1.58
- variant spec: "R18M"
  value kind: "protein stability index"
  result: 1.86
- variant spec: "K23P"
  value kind: "protein stability index"
  result: 2.48
- variant spec: "R18C"
  value kind: "protein stability index"
  result: 2.37
- variant spec: "G1N"
  value kind: "protein stability index"
  result: 2.55
- variant spec: "S15W"
  value kind: "protein stability index"
  result: 3.71
- variant spec: "Q6V"
  value kind: "protein stability index"
  result: 2.38
- variant spec: "S22T"
  value kind: "protein stability index"
  result: 2.87
- variant spec: "F12R"
  value kind: "protein stability index"
  result: 2.73
- variant spec: "R18F"
  value kind: "protein stability index"
  result: 2.78
- variant spec: "F12P"
  value kind: "protein stability index"
  result: 3.34
- variant spec: "K16W"
  value kind: "protein stability index"
  result: 3.97
- variant spec: "R24Y"
  value kind: "protein stability index"
  result: 2.91
- variant spec: "K3N"
  value kind: "protein stability index"
  result: 2.73
- variant spec: "G1C"
  value kind: "protein stability index"
  result: 3.45
- variant spec: "I20R"
  value kind: "protein stability index"
  result: 2.15
- variant spec: "S15T"
  value kind: "protein stability index"
  result: 2.44
- variant spec: "S22Q"
  value kind: "protein stability index"
  result: 3.09
- variant spec: "I20N"
  value kind: "protein stability index"
  result: 3.51
- variant spec: "H14S"
  value kind: "protein stability index"
  result: 2.34
- variant spec: "R18T"
  value kind: "protein stability index"
  result: 2.45
- variant spec: "Y13F"
  value kind: "protein stability index"
  result: 3.27
- variant spec: "F12T"
  value kind: "protein stability index"
  result: 2.78
- variant spec: "K23N"
  value kind: "protein stability index"
  result: 2.3
- variant spec: "K16A"
  value kind: "protein stability index"
  result: 3.51
- variant spec: "S8L"
  value kind: "protein stability index"
  result: 3.4
- variant spec: "H14E"
  value kind: "protein stability index"
  result: 3.45
- variant spec: "K23D"
  value kind: "protein stability index"
  result: 2.95
- variant spec: "M9W"
  value kind: "protein stability index"
  result: 3.37
- variant spec: "M9T"
  value kind: "protein stability index"
  result: 1.91
- variant spec: "K3Y"
  value kind: "protein stability index"
  result: 5.28
- variant spec: "M9V"
  value kind: "protein stability index"
  result: 2.96
- variant spec: "R24A"
  value kind: "protein stability index"
  result: 3.13
- variant spec: "G1M"
  value kind: "protein stability index"
  result: 2.88
- variant spec: "T7I"
  value kind: "protein stability index"
  result: 2.38
- variant spec: "L19G"
  value kind: "protein stability index"
  result: 2.71
- variant spec: "K23Y"
  value kind: "protein stability index"
  result: 2.74
- variant spec: "H14R"
  value kind: "protein stability index"
  result: 3.52
- variant spec: "R2T"
  value kind: "protein stability index"
  result: 2.8
- variant spec: "L19Y"
  value kind: "protein stability index"
  result: 3.91
- variant spec: "R17Q"
  value kind: "protein stability index"
  result: 3.46
- variant spec: "K3S"
  value kind: "protein stability index"
  result: 3.96
- variant spec: "Q6C"
  value kind: "protein stability index"
  result: 3.21
- variant spec: "R2A"
  value kind: "protein stability index"
  result: 2.05
